tested on: OVCAR-3 ovarian; assay: NCI-60 one-dose screen, 48 h (100 = growth as untreated, 0 = no growth, -100 = all killed); conditions: 10 µM unless noted
Compounds without any hit were thinned out: in the full panel of roughly 83,000, 20% have a hit.

Compound | growth (%)
COc1cc2c(c(OC)c1OC)CCC(c1cccc(C(=O)Nc3ccccc3Br)c1)O2 (stereo unspecified) | 100
Cn1cc(-c2csc(-c3cn(CCO)c4ccc(F)cc34)n2)c2cccnc21 | 49.7
CCN(CC)CCCNc1cc(OC)cc2cccnc12 | 79.2
O=C1NCCN1/N=C/c1c(Cl)n(Cc2ccc(Cl)cc2)c2ccccc12 | 84.8
Oc1ccc(C(c2ccc(O)cc2)c2ccc(Cl)cn2)cc1 | -34.5
COc1nc2ccccc2cc1/C=[N+](\[O-])c1ccccc1 | 86.2
CCCCCCCCCCCCCC[n+]1ccc2c(C)c3c(c(C)c2c1)c1cc(O)ccc1n3CC | -95.3
CN1C(=O)N(C)C2C1NN=c1s/c(=C\c3ccccc3F)c(=O)n12 (stereo unspecified) | -3.72
[2H]C([2H])([2H])Oc1c(F)cccc1/C=C/C(=O)/C=C(O)/C=C/c1cccc(F)c1OC([2H])([2H])[2H] | 108
CN(C)CCCN(CCC1CCCCC1)CCC1CCCCC1 | 34.6
FC(F)(F)c1cc(N2CCCCC2)nc(NCCCNc2ccnc3cc(Cl)ccc23)n1 | 54.8
CN(C)c1ccc(/C=N/NC(=O)CSc2nc3sc4c(c3c(=O)n2-c2ccccc2)CCCCC4)cc1 | 12
CC(Cc1cccc2ccccc12)C(N)=O (stereo unspecified) | 113
COc1ccc(NC(=O)c2ccc(Cl)cc2Cl)cc1 | 106
COc1cc(C(=O)n2nc(NCCCc3ccccc3)c3cc(N)ccc32)cc(OC)c1OC | 101
CCC(=C(c1ccc(OCCN(CC)CC)cc1)c1ccc(OCCN(CC)CC)cc1)c1ccc(Cl)cc1 | -72.2
CCCN1C(=O)N(CCC)C2C1NC(=S)N2/N=C/C=C/c1ccccc1OC (stereo unspecified) | -20.9
CN1CCN(Cc2ccc(NC(=O)c3cncc(C#Cc4cnc(N)c5ccc(C#N)cc45)c3)cc2C(F)(F)F)CC1 | 3.19
O=C(OCC(O)(CO)C(=O)NC12CC3CC(CC(C3)C1)C2)c1ccc(Cl)cc1 (stereo unspecified) | 101
COc1ccc(CNc2ccc3nc(CCC4CCCCC4)[nH]c3c2)cc1 | 75.4
O=C(/C=C/c1ccco1)c1ccc(Nc2ccnc3cc(Cl)ccc23)cc1 | 78.7
CCOC(=O)CC1CSC(N/N=C/c2ccc(O)cc2)=N1 (stereo unspecified) | 110
CCOc1ccccc1NC(=O)CCC(=O)OC | 108
Cc1cc2c(C(C)C)c(O)c(O)c(/C=N/O)c2c(O)c1-c1c(C)cc2c(C(C)C)c(O)c(O)c(/C=N/O)c2c1O | 25.6
COc1cc(CNC(=O)CCCC/C=C/C(C)C)ccc1OCc1cn(-c2ccc(C(F)(F)F)cc2)nn1 | 107
C=CCOC(=O)C1=C(C)N(CC)C(=O)N(CC)C1c1c(Cl)n(C)c2ccccc12 (stereo unspecified) | 90
COC(=O)[C@H](C)NC(=O)[C@@H]1CCCN1C(=O)CNC(=O)[C@H](C)N | 112
COc1ccc(-c2cc(-c3ccc(N(C)C)cc3)nc(NC(=O)c3cccnc3)n2)cc1 | 106
O=C(/C=C/c1ccc(Cl)cc1)c1ccc(Nc2ccnc3cc(Cl)ccc23)cc1 | 86.5
COC1CC(O)C2=C(CC3C(/C(C)=C\CC=C(C)C)CCC3(C)O2)C1=O (stereo unspecified) | 109
COC(=O)[C@H](C)NC(=O)c1ccc(NC(=O)c2[nH]c(C)c(Cl)c2Cl)c(OCCN)c1 | 108
Cc1cccc(C)c1NC(=O)Nc1ccccc1 | 115
O=C(c1ccccc1)[C@@H](c1ccccc1)[C@]1(O)C(=O)Nc2ccccc21 | 94.2
CCOC(=O)c1c(C)n2c(=O)cc(C)c3c(OC(C)=O)c(OC(C)=O)cc1c32 | 6.3
CCCn1cnc2c(c1=N)C(c1ccc(Cl)cc1)c1sc3c(F)cccc3c1O2 (stereo unspecified) | 81.4
COc1cc(OCc2cccc(-c3ccccc3)c2C)cc(OC)c1CN1CCCCC1C(=O)NCCOCCOCCN (stereo unspecified) | 85
O=c1[nH]c(CN2CCN(c3ccccc3)CC2)nc2c(Br)cc(Br)cc12 | 103
O=C(CSc1nc(-c2ccccc2)cn1-c1ccc(Cl)cc1)c1ccc([N+](=O)[O-])cc1 | 78.8
Cc1c2ccncc2c(C)c2c1c1ccccc1n2CCCCCC(=O)O | 93.1
CCOC(=O)/C(=C/c1ccc([N+](=O)[O-])cc1)C(=O)c1ccccc1 | 58.4
Cn1cc(-c2nc(-c3c[nH]c4c(Cl)nccc34)cs2)c2ccccc21 | 107

###

system: MALME-3M melanoma; experiment: NCI-60 one-dose screen, 48 h (100 = growth as untreated, 0 = no growth, -100 = all killed); details: 10 µM unless noted
About 83,000 compounds went through this panel and 20% of them were active in at least one assay; those are over-represented in the sample as a whole.
Consider the cut-off 90%. If the recorded growth is strictly smaller, the label is fulfilled; if not, the label is not fulfilled.

Compound | Class Label
O=c1[nH]c(CN2CCN(c3ccccc3)CC2)nc2c(Br)cc(Br)cc12 | not fulfilled
COc1ccc(/C(C)=C(\c2ccc(Cl)cc2)c2ccc(OCCCN(C)C)cc2)cc1 | fulfilled
O=C(/C=C/c1ccco1)c1ccc(Nc2ccnc3cc(Cl)ccc23)cc1 | not fulfilled
Cc1ccc2c(n1)C[C@H](C(C)(C)O)CC[C@H]2C | not fulfilled
Oc1ccc(C2OCCO2)c2cccnc12 | fulfilled
Cc1ccc2c(c1)CC(O)CC1C(=O)N(CCO)CC(=O)N21 (stereo not given) | not fulfilled
CN1C(=O)N(C)C2C1NN=c1s/c(=C\c3ccc(F)cc3)c(=O)n12 (stereo not given) | fulfilled
COc1cccc(C2C3=C(COC3=O)N(CCO)c3cc4c(cc32)OCCO4)c1 (stereo not given) | fulfilled
O=C1c2ccccc2C(=O)c2cc(Cn3c[n+](Cc4ccc5ccccc5c4)c4ccccc43)ccc21 | fulfilled

###

test system: SK-OV-3 ovarian; assay: NCI-60 one-dose screen, 48 h; details: 10 µM unless noted
The panel holds about 83,000 compounds, 20% with a hit somewhere; the sample as a whole holds those more often. Activity calls are given as the source filed them. How the source made its calls: active means growth percent below 10; inactive means the rest.
Outcome codes: active, inactive

Molecule | Class Label
O=c1oc2ccccc2cc1-c1nn(-c2ccccc2)cc1/C=N/Nc1nc(-c2ccccc2)c(N=Nc2ccccc2)s1 | inactive
CC(C)(C)n1cc(-c2ccnc(NCCNS(=O)(=O)c3ccc(Br)cc3)c2)c(-c2cccc(O)c2)n1 | inactive
COC(=O)c1c(C)nc(C)c2c1C(=O)C(Br)=C(NCCCCO)C2=O | inactive
CNC1=C([N+](=O)[O-])C(c2ccc(OC)cc2)C(C#N)=C(c2ccc[nH]2)O1 (stereo unspecified) | inactive
CN(C)c1ccc(Cc2cc(-c3ccccc3)nn(C/C(=N/O)c3ccccc3)c2=O)cc1 | inactive
CN(C)CCCN(CCC1CCCCC1)CCC1CCCCC1 | inactive
COc1ccc(S(=O)(=O)NC2c3ccccc3CC2O)cc1OC (stereo unspecified) | inactive
O=C(Nc1ncc(Cc2cc(C(F)(F)F)ccc2Cl)s1)C(=S)N1CCOCC1 | inactive
Cc1c(Cl)cccc1NC(=O)c1sc2nc3c(cc2c1N)CCCC3 | inactive
O=C(Nc1ccccc1C(F)(F)F)C1=NCCCCN1 | inactive
Nc1nc(Nc2ccc([N+](=O)[O-])cc2O)nc(C(Cl)(Cl)Cl)n1 | inactive
Clc1ccc2c(NCCCn3cnc4c(N5CCCC5)nc(Cl)nc43)ccnc2c1 | inactive
COc1ccccc1NC(=O)n1c(=O)cc(C)c2ccc(O)cc21 | inactive
COc1cccc(NC(=O)c2sc3nc(C)c(C(=O)c4ccccc4)cc3c2N)c1 | inactive
C[C@@H]1N=C(c2ccc(Cl)cc2Cl)Nc2nc3ccccn3c2C1=O | inactive
COc1ccc(/C=N\NC(=O)c2ccc3nc(-c4ccc(Cl)cc4)[nH]c3c2)cc1 | inactive
COc1ccc2c(O)cc3c(c2c1)[C@H](CCl)CN3C(=O)c1cc2cc(NC(=O)CCN3CCOCC3)ccc2[se]1 | active
CC(=O)OCCOc1cc(Cl)c(Cl)cc1Cl | inactive
CC(=O)/C(Br)=C/c1ccc(Br)o1 | inactive
O=C(O)COc1ccc(F)cc1 | inactive
COc1cc2c(c(OC)c1OC)CCC(c1cccc(NC(=O)c3cccc(Cl)c3)c1)O2 (stereo unspecified) | inactive

###

test system: SNB-75 CNS; experiment: NCI-60 one-dose screen, 48 h; conditions: 10 µM unless noted
This is part of a sample that, as a whole, favours compounds with a hit. Of some 83,000 tested, about 20% had one in any assay. Active and inactive are the calls of the source. How the source made its calls: active means growth percent below 10; inactive means the rest.
Labels: YES for active, NO for inactive

Compound | Class Label
CC(=O)[C@H]1CC[C@]2(C)[C@@H]1CC[C@@H]1[C@@]3(C)C/C(=C/c4cccnc4)C(=O)C(C)(C)[C@@H]3CC[C@]12C | NO
Cn1cc(-c2csc(-c3cn(C)c4ccc(F)cc34)n2)c2cnccc21 | YES
CN1C(=O)N(C)C2C1NN=c1s/c(=C\c3ccccc3F)c(=O)n12 (centres undefined) | YES
CC1(C)C2=C(C(=O)N1Cc1ccccc1)C(c1ccco1)N(C(=O)C1CCC1)CCN2 (centres undefined) | NO
C=CC(=O)Nc1ccc2ncnc(Nc3cccc(NS(=O)(=O)CCC)c3Cl)c2c1 | YES
CN(C)c1ccc(/C=C/C2=[N+](C)c3ccccc3C2(C)C)cc1 | NO
COC(=O)[C@H]1Cc2c([nH]c3ccccc23)[C@H](c2ccc3c(c2)OCO3)N1 | NO
C=C(C)[C@@H]1CC[C@]2(COC(=O)c3cccnc3)CC[C@]3(C)[C@H](CC[C@@H]4[C@@]5(C)CCCN(C(=O)c6cccnc6)C(C)(C)[C@@H]5CC[C@]43C)[C@@H]12 | NO
O=C(OCc1ccc2c(Br)cc(Br)c(O)c2n1)N1CCN(C(=O)c2cc3ccccc3[nH]2)CC1 | NO
CN(C)C(=S)NN=C(c1ccccn1)c1ccccn1 | YES
O=C(Nc1ccccc1)Nc1ccccc1CNc1nc(Nc2ccc(OCCN3CCCC3)cc2)ncc1Cl | NO
CC(C)=CC(=O)C1C(=O)c2ccccc2C1=O | NO
CCOC(=O)c1ccc2c(c1)c1c(C)c3cnccc3c(C)c1n2C | YES
COc1cc(C(=O)n2nc(NCCCc3ccccc3)c3cc(N)ccc32)cc(OC)c1OC | NO
O=C(Nc1ncc(Cc2ccccc2Cl)s1)c1ccc2c(c1)OCCO2 | YES
CCCNNC(=O)c1ccc(CNC(=O)/C=C/c2ccccc2)cc1 | NO
O=C1NC(=O)C(=Cc2cc(-c3ccc(Cl)cc3)n(-c3ccccc3)n2)C(=O)N1 | NO
COc1ccc(/C=C2/CCc3cc4ccc(OC)cc4[o+]c32)c(O)c1 | NO
CC/C(=C(/c1ccc(Cl)cc1)c1ccc(OCCN2CCCCCC2)cc1)c1ccccc1 | NO
